test.system: NRAS Q61K (Homo sapiens (Human), UniProt P01111+P62937, Q61K)
Sequence (P01111 whole entry Q61K): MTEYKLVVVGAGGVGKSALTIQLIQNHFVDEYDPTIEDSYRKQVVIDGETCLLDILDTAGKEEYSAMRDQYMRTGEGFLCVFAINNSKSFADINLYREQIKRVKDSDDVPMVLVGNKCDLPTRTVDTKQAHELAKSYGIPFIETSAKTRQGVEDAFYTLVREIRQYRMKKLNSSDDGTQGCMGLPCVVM
Sequence (P62937 whole entry): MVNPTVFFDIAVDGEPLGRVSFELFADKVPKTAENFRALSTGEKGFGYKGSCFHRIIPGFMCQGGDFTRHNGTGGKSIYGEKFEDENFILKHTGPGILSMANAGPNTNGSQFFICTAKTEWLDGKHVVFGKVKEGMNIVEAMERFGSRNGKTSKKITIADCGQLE
procedure.text: Ras-Raf (BRAF RBD) disruption / FRET / MOA assay, NRAS Q61K
Format: biochemical
protocol.conditions: NRAS Q61K; Ras-Raf disruption/FRET/MOA assay; read-out: IC50* NRAS Q61K FRET data
Consider the following compounds; for each one, report its IC50.

// known answers, use as guide
compound	test.system	IC50
CCn1c(-c2cccnc2[C@H](C)OC)c2c3cc(ccc31)-c1cnc(o1)C[C@H](NC(=O)[C@H](C(C)C)N(C)C(=O)[C@H]1CCN(C(=O)C#CC(C)(C)N(C)C)C1)C(=O)N1CCC[C@H](N1)C(=O)OCC(C)(C)C2 (atropisomer, axis not shown)	NRAS Q61K (Homo sapiens (Human), UniProt P01111+P62937, Q61K)	> 10000 nM
C=CC(=O)N1CC[C@H](C(=O)N(C)[C@H](C(=O)N[C@H]2Cc3cc(cc(C(F)F)c3)-c3ccc4c(c3)c(c(-c3cc(N5CCN(C)CC5)cnc3[C@H](C)OC)n4CC(F)(F)F)CC(C)(C)COC(=O)[C@@H]3CCCN(N3)C2=O)C(C)C)C1 (atropisomer, axis not shown)	NRAS Q61K (Homo sapiens (Human), UniProt P01111+P62937, Q61K)	1000 to 10000 nM
CCn1c(-c2cccnc2[C@H](C)OC)c2c3cc(ccc31)N1CCO[C@@H](C[C@H](NC(=O)[C@H](C(C)C)N3CC[C@@]4(CCN(C(=O)C#CC(C)(C)N(C)C)C4)C3=O)C(=O)N3CCC[C@H](N3)C(=O)OCC(C)(C)C2)C1 (atropisomer, axis not shown)	NRAS Q61K (Homo sapiens (Human), UniProt P01111+P62937, Q61K)	> 10000 nM
C=CC(=O)N1CC[C@H](C(=O)N2CCCCC[C@H]2C(=O)N[C@H]2Cc3cccc(c3)-c3ccc4c(c3)c(c(-c3cccnc3[C@H](C)OC)n4CC)CC(C)(C)COC(=O)[C@@H]3CCCN(N3)C2=O)C1 (atropisomer, axis not shown)	NRAS Q61K (Homo sapiens (Human), UniProt P01111+P62937, Q61K)	1000 to 10000 nM

For every listed record, write down its IC50.
1. C=CC(=O)N1CC[C@H](C(=O)N(C)[C@H](C(=O)N[C@H]2Cc3cc(O)cc(c3)-c3ccc4c(c3)c(c(-c3cn(C)cn3)n4CC)CC(C)(C)COC(=O)[C@@H]3CCCN(N3)C2=O)C(C)C)C1
2. CO[C@@H](C)c1ncccc1-c1c2c3cc(ccc3n1CC(F)(F)F)N1CCO[C@@H](C[C@H](NC(=O)[C@@H](COC3CN(C(=O)C#CC(C)(C)N(C)C)C3)C(C)C)C(=O)N3CCC[C@H](N3)C(=O)OCC(C)(C)C2)C1 (atropisomer, axis not shown)
3. C=CC(=O)N1CC[C@@]2(C1)OCN([C@H](C(=O)N[C@H]1Cc3cccc(c3)-c3ccc4c(c3)c(c(-c3cccnc3[C@H](C)OC)n4CC)CC(C)(C)COC(=O)[C@@H]3CCCN(N3)C1=O)C(C)C)C2=O (atropisomer, axis not shown)
4. CCn1c(-c2cccnc2[C@H](C)OC)c2c3cc(ccc31)N1CCC[C@@H](C[C@H](NC(=O)[C@H](C(C)C)N(C)C(=O)C3(F)CCN(C(=O)C#CC(C)(C)N(C)C)CC3)C(=O)N3CCC[C@H](N3)C(=O)OCC(C)(C)C2)C1 (atropisomer, axis not shown)
5. C=CC(=O)N1CC2(CCN(C(=O)N(C)[C@H](C(=O)N[C@H]3Cc4nc(cs4)-c4ccc5c(c4)c(c(-c4cccnc4[C@H](C)OC)n5CC)CC(C)(C)COC(=O)[C@@H]4CCCN(N4)C3=O)C(C)C)CC2)C1 (atropisomer, axis not shown)
6. C=CC(=O)N1CCC(C(=O)N(C)[C@H](C(=O)N[C@H]2Cc3cc(CF)cc(c3)-c3ccc4c(c3)c(c(-c3cccnc3[C@H](C)OC)n4CC(F)(F)F)CC(C)(C)COC(=O)[C@@H]3CCCN(N3)C2=O)C(C)C)C1 (stereo partly drawn)
7. C=CC(=O)N1C[C@H](C)N(C(=O)N(C)[C@H](C(=O)N[C@H]2Cc3nc(cs3)-c3ccc4c(c3)c(c(-c3cccnc3[C@H](C)OC)n4CC)CC(C)(C)COC(=O)[C@@H]3CCCN(N3)C2=O)C(C)C)[C@@H](C)C1 (atropisomer, axis not shown)
8. CCn1c(-c2cccnc2[C@H](C)OC)c2c3cc(ccc31)C1CCCN(C1)C[C@H](NC(=O)[C@@H](COC1CN(C(=O)C#CC(C)(C)N(C)C)C1)C(C)C)C(=O)N1CCC[C@H](N1)C(=O)OCC(C)(C)C2

Response:
1: > 10000 nM; 2: > 10000 nM; 3: 1000 to 10000 nM; 4: > 10000 nM; 5: 10 to 100 nM; 6: 1000 to 10000 nM; 7: 10 to 100 nM; 8: > 10000 nM

Here are 3 compounds. What values of IC50 were reported for them?
1. C=CC(=O)N1CCC2(CCN(C(=O)N(C)[C@H](C(=O)N[C@H]3Cc4nc(cs4)-c4ccc5c(c4)c(c(-c4cccnc4[C@H](C)OC)n5CC)CC(C)(C)COC(=O)[C@@H]4CCCN(N4)C3=O)C(C)C)CC2)C1 (atropisomer, axis not shown)
2. C=CC(=O)N1CC[C@H](C(=O)N(C)[C@H](C(=O)N[C@H]2CC3=NN=C(O3)c3ccc4c(c3)c(c(-c3cccnc3[C@H](C)OC)n4CC)CC(C)(C)COC(=O)[C@@H]3CCCN(N3)C2=O)C(C)C)C1 (atropisomer, axis not shown)
3. CO[C@@H](C)c1ncccc1-c1c2c3cc(ccc3n1CC(F)(F)F)-c1csc(n1)C[C@H](NC(=O)[C@H](C(C)C)N(C)C(=O)N1C[C@@H]3OCCN(C(=O)/C=C/CN(C)C)[C@@H]3C1)C(=O)N1CCC[C@H](N1)C(=O)OCC(C)(C)C2 (atropisomer, axis not shown)

Response:
10 to 100 nM
> 10000 nM
100 to 1000 nM
